Data provenance is patent US20130177556.

Measured On: EGFR on A549 cells (Homo sapiens) (UniProt P00533)
Reported Conditions: 2'-F pyrimidines; Kd stated for full-length CL4, whole A549 cells implied
Measurement Type: pKd
Note on pKd: it is the negative log10 of concentration, concentration in mol/L.

Name the recorded pKd of the sequence listed here: GGGAGACAAGAAUAAACGCUCAACGACACGUUGCCAGCCGGAGCCUUAGUAACGUGCUUUGAUGUCGAUUCGACAGGAGGCUCACAACAGGC [CL4] 7.34

* * *

Measured On: EGFR extracellular domain (EC-EGFR) (Homo sapiens) (UniProt P00533)
Assay Notes: filter
Reported Conditions: 2'-F pyrimidines (all C and U); PBS, 0.01% BSA, 37 C, 15 min; scrambled background subtracted
Measurement Type: pKd
Note on pKd: it is the negative log10 of concentration, concentration in mol/L.

Name the recorded pKd of the sequence listed here: GCCUUAGUAACGUGCUUUGAUGUCGAUUCGACAGGAGGC [CL4 42-81] 8.00

* * *

Measured On: EGFR on A549 cells (Homo sapiens) (UniProt P00533)
Reported Conditions: 2'-F pyrimidines (all C and U); binding to whole A549 cells, radiolabelled aptamer
Measurement Type: Kd (nM)
Your answer is read as nM, so omit the unit and give the number.

Name the recorded Kd of the sequence listed here: GCCUUAGUAACGUGCUUUGAUGUCGAUUCGACAGGAGGC [CL4 42-81] 38
